Target: aldose reductase (ALR2) (Bos taurus, UniProt P16116)
Assay: Aldose reductase
Type: biochemical, calf
value kind: ALR2 inhibitory activity, result in words

COc1cccc(-n2c(-c3ccc(Cl)cc3)cs/c2=N/N=C(/C)c2ccc3c(c2)NC(=O)CO3)c1 [Compound 5j] | weak activity
COc1cccc(-n2c(-c3ccc(Br)cc3)cs/c2=N/N=C(/C)c2ccc3c(c2)NC(=O)CO3)c1 [Compound 5b] | weak activity
C/C(=N/N=c1/scc(-c2ccc(Cl)cc2)n1Cc1ccccc1)c1ccc2c(c1)OCCO2 [Compound 7i] | active inhibitors
C/C(=N/N=c1/scc(-c2ccc(Cl)cc2)n1-c1ccc(F)cc1)c1ccc2c(c1)OCCO2 [Compound 7h] | active inhibitors
